# reported pIC50; entries follow
# target_under_test: T1, human VPAC2 receptor (human, UniProt P41587 24-438)
# T1 construct: whole, on cells; CHO-S cell line stably expressing human VPAC2 (cAMP assays)
# T1 sequence (looked up): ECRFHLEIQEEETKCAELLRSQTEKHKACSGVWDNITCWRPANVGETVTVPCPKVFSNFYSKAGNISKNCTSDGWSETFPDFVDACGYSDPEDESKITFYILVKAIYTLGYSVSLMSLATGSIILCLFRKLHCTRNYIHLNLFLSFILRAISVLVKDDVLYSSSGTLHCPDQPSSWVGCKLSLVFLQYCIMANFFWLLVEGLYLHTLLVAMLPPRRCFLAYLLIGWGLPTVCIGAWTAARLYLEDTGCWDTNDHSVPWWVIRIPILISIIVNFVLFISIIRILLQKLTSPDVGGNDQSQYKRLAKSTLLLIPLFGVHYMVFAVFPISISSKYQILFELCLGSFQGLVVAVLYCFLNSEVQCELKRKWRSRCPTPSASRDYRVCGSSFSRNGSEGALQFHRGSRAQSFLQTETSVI
# experiment_description: filter binding, VPAC2 cell membranes, displacement of 125I-VIP
pIC50: −log10 of the molar value.

- binder: "HSDAVFTEQYTXLRXQLAXXXYLQSIXXGGPSSGAPPPCC (C6-HSDAVFTEQY(OMe)TOrnLRAibQLAAbuAibOrnY(OMe)LQSIOrnOrnGGPSSGAPPPC(PEG20K)C(PEG20K)-NH2) [P582]"
  pIC50: 7.32
- binder: "HSDAVFTEQYTRXRXQLAAXXYLQSIKXXGGPSSGAPPPC (C6-HSDAVFTEQY(OMe)TRAibRAibQLAAAibOrnY(OMe)LQSIKAibOrnGGPSSGAPPPC(PEG40K)-NH2) [P417]"
  pIC50: 7.62
- binder: "HSDAVFTEQYTXLRXQLAXXXYLQXIXXGGPSSGAPPPCC (C6-HSDAVFTEQY(OMe)TOrnLRAibQLAAbuAibOrnYLQAibIOrnOrnGGPSSGAPPPC(PEG30K)C(PEG30K)-NH2) [P570]"
  pIC50: 8.39
- binder: "HSDAVFTEQYTXLRXQVAAXXYLQXIXXGGPSSGAPPPC (C6-HSDAVFTEQY(OMe)TOrnLRAibQVAAAibOrnYLQK(CO(CH2)2SPEG20K)IOrnOrnGGPSSGAPPPC(PEG20K)-NH2) [P495]"
  pIC50: 6.85
